- testTarget: T1, cynomolgus monkey IL-6 (cynomolgus monkey, UniProt P79341 28-212, limits assumed)
- T1 construct: also called HIS-cyIL-6
- experimentNotes: SPR; periplasmic fraction
valueType: Ka

// for each binder below, give its Ka
1. Fab 47C2 (Fab, V domains shown, VL-shuffled Fab of 29B11, periplasmic fraction; also called 47C2 (R4)) VH: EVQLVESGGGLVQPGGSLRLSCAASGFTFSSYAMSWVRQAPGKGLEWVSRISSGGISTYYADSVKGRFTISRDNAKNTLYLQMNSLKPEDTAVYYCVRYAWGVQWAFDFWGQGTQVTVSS VL: LSYDLTQPPSVSGSPGKTVTISCAGTSSDVGYGNYVSWYQQLPGMAPKILIYDVNKRASGIADRFSGSKSGNTASLTISGLQSEDEADYYCASYRRGETIVFGGGTHLTVLG
2. Fab 48C10 (Fab, V domains shown, VL-shuffled Fab of 29B11, periplasmic fraction) VH: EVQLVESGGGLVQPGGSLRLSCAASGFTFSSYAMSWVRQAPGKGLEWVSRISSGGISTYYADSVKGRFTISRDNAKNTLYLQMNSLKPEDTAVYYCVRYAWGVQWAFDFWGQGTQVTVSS VL: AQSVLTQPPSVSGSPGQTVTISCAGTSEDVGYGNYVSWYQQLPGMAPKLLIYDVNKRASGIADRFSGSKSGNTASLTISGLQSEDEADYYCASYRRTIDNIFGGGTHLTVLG
3. Fab 29B11 (Fab, V domains shown, Fab) VH: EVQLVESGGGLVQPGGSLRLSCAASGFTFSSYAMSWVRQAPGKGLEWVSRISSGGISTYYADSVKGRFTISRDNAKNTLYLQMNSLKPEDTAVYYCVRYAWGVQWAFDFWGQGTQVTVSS VL: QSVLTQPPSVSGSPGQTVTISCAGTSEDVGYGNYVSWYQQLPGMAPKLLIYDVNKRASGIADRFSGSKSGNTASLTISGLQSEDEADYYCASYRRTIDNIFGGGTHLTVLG
4. Fab 55C1 (Fab, V domains shown, VL-shuffled Fab of 29B11, periplasmic fraction; also called 55C1a) VH: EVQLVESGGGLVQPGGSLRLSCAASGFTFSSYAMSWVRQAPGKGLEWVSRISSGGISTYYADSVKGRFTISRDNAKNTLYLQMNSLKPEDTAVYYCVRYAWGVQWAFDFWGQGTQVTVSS VL: LNFMLTQPPSVSGSPGKTVTISCAGTSSDVGYGNYVSWYQQLPGTAPKLLIYNVNKRASGITDRFSGSKSGNTASLTISGLQSEDEADYYCASYRTGDNAAFGGGTKLTVLG
5. Fab 55E2 (Fab, V domains shown, VL-shuffled Fab of 29B11, periplasmic fraction; also called 55E2b) VH: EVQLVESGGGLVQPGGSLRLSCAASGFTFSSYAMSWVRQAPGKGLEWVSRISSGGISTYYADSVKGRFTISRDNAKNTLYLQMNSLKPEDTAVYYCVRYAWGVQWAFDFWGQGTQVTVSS VL: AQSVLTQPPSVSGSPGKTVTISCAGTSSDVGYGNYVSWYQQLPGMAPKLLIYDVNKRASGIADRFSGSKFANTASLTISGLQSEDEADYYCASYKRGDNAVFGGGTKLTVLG
6. Fab 55H1 (Fab, V domains shown, VL-shuffled Fab of 29B11, periplasmic fraction; also called 55H1c) VH: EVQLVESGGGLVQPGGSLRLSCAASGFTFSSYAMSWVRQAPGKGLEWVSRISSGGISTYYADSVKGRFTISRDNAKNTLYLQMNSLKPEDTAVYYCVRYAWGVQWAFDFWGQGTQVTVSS VL: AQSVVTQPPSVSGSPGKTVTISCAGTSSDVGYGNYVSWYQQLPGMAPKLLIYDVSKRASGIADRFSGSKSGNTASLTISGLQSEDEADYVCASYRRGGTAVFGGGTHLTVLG

["6.48e+08 M⁻¹", "4.1e+08 M⁻¹", "1.51e+08 M⁻¹", "1.25e+09 M⁻¹", "1.39e+09 M⁻¹", "1.89e+09 M⁻¹"]

These data points were gathered from patent US20220073604A1.
